FYI, the data here is from patent US20240083857A1.

Biological target: human SOS1 (loading of human K-Ras^G12C-GDP with fluorescent GTP-analog) (Homo sapiens, UniProt Q07889)
Assay: Biochemical assay 3: K-Ras^G12C activation assay by hSOS1 (HTRF)
Settings: read-out: Assay 3 (KRAS-Activation by SOS no GTP) activity expressed as % inhibition at 20 μM; no GTP; at 20 μM
Quick reference for inhibition at 20 µM among some compounds
Write the number in % without appending the unit.

COc1cc2nc(C)nc(NC(C)c3csc(-c4cnn(CCO)c4)c3)c2cc1OC (stereo not drawn) [Example 251]
52
COc1cc2nc(C)nc(N[C@@H](C)c3ccc(-c4ccccc4Oc4ccccc4)s3)c2cc1OC (stereo in doubt) [Example 158]
10
COc1cc2nc(C)nc(N[C@@H](C)c3ccc(-c4ccc5c(c4)OCCO5)s3)c2cc1OC (stereo in doubt) [Example 98]
24
COc1cc2nc(C)nc(N[C@@H](C)c3ccc(-c4cccc(S(C)(=O)=O)c4)s3)c2cc1OC (stereo in doubt) [Example 173]
48
CCCCOc1cccc(F)c1-c1ccc([C@H](C)Nc2nc(C)nc3cc(OC)c(OC)cc23)s1 (stereo in doubt) [Example 136]
18

Below: the item to evaluate.
[in] # get_value(readout='inhibition at 20 µM', item= COc1cc2nc(C)nc(N[C@@H](C)c3ccc(/C=C/C4CC4)s3)c2cc1OC (racemic) [Example 132] )
[out] 46
